# System: OVCAR-3 ovarian
# MEASUREMENT_DESCRIPTION: NCI-60 one-dose screen, 48 h
# CONDITION_CONTEXT: 10 µM
# Description: Growth inhibition of the OVCAR-3 human tumor cell line is measured as a screen for anti-cancer activity. Cells are grown in 96 well plates and exposed to the test compound for 48 hours. Compounds are tested at a single concentration, which is 10^-5 M for most compounds. The reported endpoint is percent growth (GI% or GIPRCNT), where numbers from 0 - 100% represent growth inhibition, and numbers from -100% - 0 represent cell death. For example, a value of 40 represents 60% growth inhibition. […]
About 83,000 compounds went through this panel and 20% of them were active in at least one assay; those are over-represented in the sample as a whole. Active and inactive are the calls of the source. Rule for the calls: active = growth percent below 10; inactive = the rest.
Form entry, call: pick from True for active, False for inactive

Could you check what this test reported for CCC(c1ccc(OC)cc1)C(CC)c1ccc(O)c(CN2CCN(C)CC2)c1 (stereo not drawn) ?
False

Could you check what this test reported for `CN(C)c1nc(N)c2nccnc2n1` ?
False

Could you check what this test reported for `NS(=O)(=O)c1ccc(Br)cc1` ?
False

Continuing:
Could you check what this test reported for `COc1ccc(-c2nn(-c3cccc(Cl)c3)cc2-c2c(C#N)c(N)n(N)c(=O)c2C#N)cc1` ?
False

Could you check what this test reported for `C=CCNCCN1C(=O)c2ccc3c4c(ccc(c24)C1=O)C(=O)N(CCNCC=C)C3=O` ?
True

Could you check what this test reported for OC(CNc1ccnc2cc(Cl)ccc12)CNC1CCCCC1 (stereo not drawn) ?
False

Could you check what this test reported for Cc1ccc(NCCN(C)CC(C)O)c2c(=O)c3ccc(Cl)cc3sc12 (stereo not drawn) ?
False

Could you check what this test reported for `CN(C)CCOc1cccc(-c2nc3sccn3c2-c2ccnc(S(C)(=O)=O)n2)c1` ?
False

Could you check what this test reported for `CN1CCN(c2cc3c(cc2F)c(=O)c(C(=O)O)cn3-c2ccc(F)cc2)CC1` ?
False

Could you check what this test reported for `COc1ccc(-c2nc(-c3nc4ccc(C)cc4[nH]3)cc3c2[nH]c2ccccc23)cc1` ?
False

Could you check what this test reported for `CNS(=O)(=O)Oc1ccc(-c2ccc3occc3c2)cc1` ?
False
